Assay: In vitro toxicity against B82 fibroblast cells
Assay type: cell-based
Details: mouse, read-out: LD50 (the source's name)
MEASURED PROPERTY: CC50 (µg/mL)

INSERT INTO results (cpd_smiles, value) VALUES
  ('CCOc1cc2c3cc(OC)c(OC)cc3c[n+](CC)c2c2cc(OC)c(OC)cc12.[I-]', 3.2);
